- tested-on: Cyclin-dependent kinase 9 (Homo sapiens)
- method-summary: Inhibition of GST-fused human full-length CDK9 (1 to 372(end) residues)/N-terminal GST-fused His-tagged human full-length CyclinT1 (1 to 726(end) residues) expressed in baculovirus expression system at 10 nM using CDK7/9 tide as substrate incubated for 120 mins in presence of ATP by ADP-Glo Kinase assay relative to control
Would you mind telling me the reported inhibition of each entry?
Report as a plain number; the unit % is understood.

**Q:** Please look up its inhibition: Cc1cc(=O)oc2cc(OCCCN3CCC(C(=O)Nc4ncc(SCc5ncc(C(C)(C)C)o5)s4)CC3)cc(O)c12
**A:** 1

**Q:** Please look up its inhibition: CC(C)(C)c1cnc(CSc2cnc(NC(=O)C3CCN(CCCCCOc4cc(O)cc5oc(=O)ccc45)CC3)s2)o1
**A:** 24

**Q:** Please look up its inhibition: CC(C)(C)c1cnc(CSc2cnc(NC(=O)C3CCN(CCCOc4cc(O)c5c(-c6ccccc6)cc(=O)oc5c4)CC3)s2)o1
**A:** -4

**Q:** Please look up its inhibition: CC(C)(C)c1cnc(CSc2cnc(NC(=O)C3CCN(CCCOc4cc(O)cc5oc(=O)ccc45)CC3)s2)o1
**A:** -3

**Q:** Please look up its inhibition: Cc1cc(=O)oc2cc(OCCOCCN3CCC(C(=O)Nc4ncc(SCc5ncc(C(C)(C)C)o5)s4)CC3)cc(O)c12
**A:** 28

**Q:** Please look up its inhibition: CC(C)(C)c1cnc(CSc2cnc(NC(=O)C3CCN(CCCOc4ccc5c(-c6ccccc6)cc(=O)oc5c4)CC3)s2)o1
**A:** 6

**Q:** Please look up its inhibition: Cc1cc(=O)oc2cc(O)cc(OCCN3CCC(C(=O)Nc4ncc(SCc5ncc(C(C)(C)C)o5)s4)CC3)c12
**A:** 23

**Q:** Please look up its inhibition: COc1ccc(-c2cc(=O)oc3cc(O)cc(OCCCN4CCC(C(=O)Nc5ncc(SCc6ncc(C(C)(C)C)o6)s5)CC4)c23)cc1
**A:** -5

**Q:** Please look up its inhibition: Cc1cc(=O)oc2cc(OCCCCCN3CCC(C(=O)Nc4ncc(SCc5ncc(C(C)(C)C)o5)s4)CC3)cc(O)c12
**A:** 2

**Q:** Please look up its inhibition: Cc1cc(=O)oc2cc(OCCN3CCC(C(=O)Nc4ncc(SCc5ncc(C(C)(C)C)o5)s4)CC3)cc(O)c12
**A:** 37

**Q:** Please look up its inhibition: CC(C)(C)c1cnc(CSc2cnc(NC(=O)C3CCN(CCCOc4cc(O)c5c(-c6ccncc6)cc(=O)oc5c4)CC3)s2)o1
**A:** 15

**Q:** Please look up its inhibition: Cc1cc(=O)oc2cc(O)cc(OCCCCN3CCC(C(=O)Nc4ncc(SCc5ncc(C(C)(C)C)o5)s4)CC3)c12
**A:** 9

**Q:** Please look up its inhibition: CC(C)(C)c1cnc(CSc2cnc(NC(=O)C3CCN(CCCOc4cc(O)cc5oc(=O)cc(-c6ccccc6)c45)CC3)s2)o1
**A:** -8

**Q:** Please look up its inhibition: Cc1cc(=O)oc2cc(OCCCCN3CCC(C(=O)Nc4ncc(SCc5ncc(C(C)(C)C)o5)s4)CC3)cc(O)c12
**A:** 26

**Q:** Please look up its inhibition: CC(C)(C)c1cnc(CSc2cnc(NC(=O)C3CCN(CCCOc4cc(O)c5ccc(=O)oc5c4)CC3)s2)o1
**A:** 45

**Q:** Please look up its inhibition: Cc1cc(=O)oc2cc(O)cc(OCCCCCN3CCC(C(=O)Nc4ncc(SCc5ncc(C(C)(C)C)o5)s4)CC3)c12
**A:** 1

---

Would you mind telling me the reported inhibition of each entry?
- tested-on: Cyclin-dependent kinase 9 (Homo sapiens)
- method-summary: Inhibition of GST-fused human full-length CDK9 (1 to 372(end) residues)/N-terminal GST-fused His-tagged human full-length CyclinT1 (1 to 726(end) residues) expressed in baculovirus expression system at 100 nM using CDK7/9 tide as substrate incubated for 120 mins in presence of ATP by ADP-Glo Kinase assay relative to control

**Q:** Please look up its inhibition: Cc1cc(=O)oc2cc(O)cc(OCCCN3CCC(C(=O)Nc4ncc(SCc5ncc(C(C)(C)C)o5)s4)CC3)c12
**A:** 55%

**Q:** Please look up its inhibition: Cc1cc(=O)oc2cc(OCCN3CCC(C(=O)Nc4ncc(SCc5ncc(C(C)(C)C)o5)s4)CC3)cc(O)c12
**A:** 69%

**Q:** Please look up its inhibition: CC(C)(C)c1cnc(CSc2cnc(NC(=O)C3CCN(CCCOc4cc(O)c5ccc(=O)oc5c4)CC3)s2)o1
**A:** 78%

---

Would you mind telling me the reported inhibition of each entry?
- tested-on: UniProt P50750
- Sequence (P50750 whole entry, the tested form may be a part): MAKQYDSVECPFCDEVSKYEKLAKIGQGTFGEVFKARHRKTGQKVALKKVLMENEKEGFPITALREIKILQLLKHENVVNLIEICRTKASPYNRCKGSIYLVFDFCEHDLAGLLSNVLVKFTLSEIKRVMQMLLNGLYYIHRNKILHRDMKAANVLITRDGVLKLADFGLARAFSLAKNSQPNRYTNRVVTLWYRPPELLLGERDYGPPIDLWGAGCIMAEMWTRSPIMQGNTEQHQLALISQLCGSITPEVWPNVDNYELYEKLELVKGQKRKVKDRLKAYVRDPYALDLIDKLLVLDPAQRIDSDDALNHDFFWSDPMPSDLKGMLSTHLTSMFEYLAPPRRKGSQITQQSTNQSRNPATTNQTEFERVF
- method-summary: Inhibition of GST-fused human full-length CDK9 (1 to 372(end) residues)/N-terminal GST-fused His-tagged human full-length CyclinT1 (1 to 726(end) residues) expressed in baculovirus expression system at 10 nM using CDK7/9 tide as substrate incubated for 120 mins in presence of ATP by ADP-Glo Kinase assay relative to control
Report as a plain number; the unit % is understood.

**Q:** Please look up its inhibition: Cc1cc(=O)oc2cc(O)cc(OCCOCCN3CCC(C(=O)Nc4ncc(SCc5ncc(C(C)(C)C)o5)s4)CC3)c12
**A:** 5

**Q:** Please look up its inhibition: COc1ccc(-c2cc(=O)oc3cc(OCCCN4CCC(C(=O)Nc5ncc(SCc6ncc(C(C)(C)C)o6)s5)CC4)cc(O)c23)cc1
**A:** 33

**Q:** Please look up its inhibition: CC(C)(C)c1cnc(CSc2cnc(NC(=O)C3CCN(CCCOc4cccc5oc(=O)cc(-c6ccccc6)c45)CC3)s2)o1
**A:** -8

**Q:** Please look up its inhibition: CC(C)(C)c1cnc(CSc2cnc(NC(=O)C3CCN(CC(=O)NCCOCCOCCOCCNc4cccc5c4C(=O)N(C4CCC(=O)NC4=O)C5=O)CC3)s2)o1 (centres undefined)
**A:** 4

---

- tested-on: Cyclin-dependent kinase 9 (Homo sapiens)
- method-summary: Inhibition of GST-fused human full-length CDK9 (1 to 372(end) residues)/N-terminal GST-fused His-tagged human full-length CyclinT1 (1 to 726(end) residues) expressed in baculovirus expression system at 100 nM using CDK7/9 tide as substrate incubated for 120 mins in presence of ATP by ADP-Glo Kinase assay relative to control
measure-name: inhibition (%)
Report as a plain number; the unit % is understood.

**Q:** Please look up its inhibition: Cc1cc(=O)oc2cc(OCCCCN3CCC(C(=O)Nc4ncc(SCc5ncc(C(C)(C)C)o5)s4)CC3)cc(O)c12
**A:** 73

**Q:** Please look up its inhibition: Cc1cc(=O)oc2cc(OCCCN3CCC(C(=O)Nc4ncc(SCc5ncc(C(C)(C)C)o5)s4)CC3)cc(O)c12
**A:** 65

**Q:** Please look up its inhibition: CC(C)(C)c1cnc(CSc2cnc(NC(=O)C3CCN(CCCOc4cc(O)c5c(-c6ccc(F)cc6)cc(=O)oc5c4)CC3)s2)o1
**A:** 80

**Q:** Please look up its inhibition: CC(C)(C)c1cnc(CSc2cnc(NC(=O)C3CCN(CCCOc4cc(O)cc5oc(=O)cc(-c6ccncc6)c45)CC3)s2)o1
**A:** 55

**Q:** Please look up its inhibition: Cc1cc(=O)oc2cc(O)cc(OCCCCCN3CCC(C(=O)Nc4ncc(SCc5ncc(C(C)(C)C)o5)s4)CC3)c12
**A:** 54

**Q:** Please look up its inhibition: CC(C)(C)c1cnc(CSc2cnc(NC(=O)C3CCN(CCCOc4ccc5c(-c6ccccc6)cc(=O)oc5c4)CC3)s2)o1
**A:** 69

**Q:** Please look up its inhibition: CC(C)(C)c1cnc(CSc2cnc(NC(=O)C3CCN(CC(=O)NCCOCCOCCOCCNc4cccc5c4C(=O)N(C4CCC(=O)NC4=O)C5=O)CC3)s2)o1 (configuration not stated)
**A:** 39

---

Would you mind telling me the reported inhibition of each entry?
- tested-on: Cyclin-dependent kinase 9 (Homo sapiens)
- method-summary: Inhibition of GST-fused human full-length CDK9 (1 to 372(end) residues)/N-terminal GST-fused His-tagged human full-length CyclinT1 (1 to 726(end) residues) expressed in baculovirus expression system at 100 nM using CDK7/9 tide as substrate incubated for 120 mins in presence of ATP by ADP-Glo Kinase assay relative to control
Report as a plain number; the unit % is understood.

**Q:** Please look up its inhibition: CC(C)(C)c1cnc(CSc2cnc(NC(=O)C3CCN(CCCCCOc4cc(O)cc5oc(=O)ccc45)CC3)s2)o1
**A:** 83

**Q:** Please look up its inhibition: CC(C)(C)c1cnc(CSc2cnc(NC(=O)C3CCN(CCCOc4cc(O)cc5oc(=O)cc(-c6ccccc6)c45)CC3)s2)o1
**A:** 51

**Q:** Please look up its inhibition: Cc1cc(=O)oc2cc(O)cc(OCCN3CCC(C(=O)Nc4ncc(SCc5ncc(C(C)(C)C)o5)s4)CC3)c12
**A:** 73

**Q:** Please look up its inhibition: COc1ccc(-c2cc(=O)oc3cc(O)cc(OCCCN4CCC(C(=O)Nc5ncc(SCc6ncc(C(C)(C)C)o6)s5)CC4)c23)cc1
**A:** 61

**Q:** Please look up its inhibition: CC(C)(C)c1cnc(CSc2cnc(NC(=O)C3CCN(CCCOc4cc(O)cc5oc(=O)cc(-c6ccc(F)cc6)c45)CC3)s2)o1
**A:** 68

**Q:** Please look up its inhibition: CC(C)(C)c1cnc(CSc2cnc(NC(=O)C3CCN(CCCOc4cc(O)cc5oc(=O)ccc45)CC3)s2)o1
**A:** 52

**Q:** Please look up its inhibition: CC(C)(C)c1cnc(CSc2cnc(NC(=O)C3CCN(CCCOc4cc(O)c5c(-c6ccncc6)cc(=O)oc5c4)CC3)s2)o1
**A:** 69
